Hey, just so you know, these numbers are from paper PMC9873984.

- TARGET OR TEST SYSTEM: UniProtKB Q9Y345
- METHOD NOTES: Inhibitor washout time course (reversibility), control and MβCD-treated oocytes
- Type: cell-based
- Design: expressed in transfected cells; host or cells: Xenopus laevis oocytes injected with in vitro transcribed RNA (pOTV vector)
- CONDITION LABEL: MβCD-treated oocytes (15 mM, 30 min, 32°C)
MEASUREMENT KIND: Recovery at 30 min (%)
Report the value in % with no unit label.

Just so you know, measured Recovery at 30 min for `CCCCCCCC/C=C\CCCCCCCC(=O)N[C@@H](CCCCN)C(=O)O` came out at 63.0

# Recovery at 30 min (compound: `CCCCCCCC/C=C\CCCCCCCC(=O)O[C@H](CC(=O)[O-])C[N+](C)(C)C` ) is 92.4

compound `CCCCCCCC/C=C\CCCCCCCC(=O)N[C@@H](CC(C)C)C(=O)O` , Recovery at 30 min observed: 92.2

---

- TARGET OR TEST SYSTEM: GlyT2 Y430L mutant (Homo sapiens, UniProt Q9Y345, Y430L)
- Sequence (Q9Y345 whole entry Y430L): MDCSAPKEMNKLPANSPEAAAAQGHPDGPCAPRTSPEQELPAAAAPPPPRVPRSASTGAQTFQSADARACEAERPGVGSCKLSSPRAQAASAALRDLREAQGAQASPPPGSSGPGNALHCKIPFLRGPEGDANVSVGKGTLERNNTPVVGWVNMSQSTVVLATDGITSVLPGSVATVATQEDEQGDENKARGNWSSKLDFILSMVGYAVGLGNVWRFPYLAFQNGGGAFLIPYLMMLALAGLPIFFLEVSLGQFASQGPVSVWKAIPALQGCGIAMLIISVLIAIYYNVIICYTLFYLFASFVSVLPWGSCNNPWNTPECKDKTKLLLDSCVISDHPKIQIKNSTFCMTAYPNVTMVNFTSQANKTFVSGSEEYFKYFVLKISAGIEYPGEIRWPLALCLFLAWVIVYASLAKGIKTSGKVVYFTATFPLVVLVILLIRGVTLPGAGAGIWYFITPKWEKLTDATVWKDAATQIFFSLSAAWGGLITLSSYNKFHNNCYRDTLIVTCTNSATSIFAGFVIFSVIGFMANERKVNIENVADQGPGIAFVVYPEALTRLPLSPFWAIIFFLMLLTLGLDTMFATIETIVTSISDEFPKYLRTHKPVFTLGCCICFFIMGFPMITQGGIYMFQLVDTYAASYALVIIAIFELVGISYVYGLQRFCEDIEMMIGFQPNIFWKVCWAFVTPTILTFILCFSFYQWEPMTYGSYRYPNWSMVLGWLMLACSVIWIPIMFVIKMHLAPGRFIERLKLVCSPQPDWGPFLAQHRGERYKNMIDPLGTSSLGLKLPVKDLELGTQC
- METHOD NOTES: Inhibitor concentration–responses on glycine transport currents, two-electrode voltage clamp
- Assay type: cell-based
- Design: expressed in transfected cells; host or cells: Xenopus laevis oocytes injected with mutant RNA (pOTV vector)
- CONDITION LABEL: Y430L GlyT2 in Xenopus laevis oocytes; listed as OLLys
MEASUREMENT KIND: pIC50
Scale: negative log10 of molar concentration, which is what pIC50 denotes.

Noted for `CCCCCCCC/C=C\CCCCCCCC(=O)N[C@@H](CCCCN)C(=O)O` : its pIC50 reads 6.07
